Condition Parameters: 364.52 K; Liquid; Closed cell (Static) method
Assay Metric: vapor or sublimation pressure (kPa)

Molecule	Units Text	vapor or sublimation pressure
CCC(C)O (centres undefined) [butan-2-ol]	kPa	74

A: CC(C)O [propan-2-ol]
B: CO [methanol]
Kindly identify the item with the lower vapor or sublimation pressure figure among these two: A and B Identify your selection by its label. A
(A: 143.9 kPa, B: 267.3 kPa)
